assay: Liver microsomal stability, mouse; conditions: mouse, liver microsomes, pH 7.4

| Compound | microsomal CLint at 1 μM, µL/min/mg |
| --- | --- |
| O=c1c2cccc3cccc(c32)c2nc3cc(Cl)ccc3n12 | 141 |
| O=S(=O)(c1ccc2ccccc2c1)n1c(-c2cccc3ccccc23)nc2cc(Cl)ccc21 | 47.2 |
| CCc1ccc(S(=O)(=O)n2c(-c3cccc4ccccc34)nc3ccc(Cl)cc32)cc1 | 94.7 |
| COc1ccc(C(=O)c2c[nH]c3ccc(Cl)cc23)cc1 | 36.9 |
| O=C(c1cccc2ccccc12)C1CN(C(=O)c2ccccc2)c2ccc(Cl)cc21 (centres unmarked) | 23 |

----------
# IC50 listing for each entry below
molecular target: UniProt:P11712; test: CYP panel profile: P450 inhibition, CYP-2C9; assay type: in vitro ADME; conditions: human liver microsomes
Sequence (P11712 whole entry): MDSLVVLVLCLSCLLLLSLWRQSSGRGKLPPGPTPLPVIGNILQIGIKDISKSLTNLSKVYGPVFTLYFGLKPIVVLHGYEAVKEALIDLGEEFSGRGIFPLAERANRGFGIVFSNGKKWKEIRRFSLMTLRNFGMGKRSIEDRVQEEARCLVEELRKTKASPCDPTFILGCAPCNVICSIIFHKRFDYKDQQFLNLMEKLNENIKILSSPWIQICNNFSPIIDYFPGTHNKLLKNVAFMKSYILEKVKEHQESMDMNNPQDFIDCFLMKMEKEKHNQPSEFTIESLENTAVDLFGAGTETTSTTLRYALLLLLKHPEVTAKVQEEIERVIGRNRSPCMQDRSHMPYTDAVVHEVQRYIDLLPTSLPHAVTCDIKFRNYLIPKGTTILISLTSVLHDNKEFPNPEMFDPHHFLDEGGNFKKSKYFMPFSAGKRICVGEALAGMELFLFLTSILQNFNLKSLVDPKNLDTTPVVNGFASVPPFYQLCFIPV
Quantity: IC50

| Compound | Value reported |
| --- | --- |
| Clc1ccc2[nH]c(-c3cccc4ccccc34)cc2c1 | 7.2 µM |
| O=C(C1CCCCC1)n1c(-c2cccc3ccccc23)nc2ccc(Cl)cc21 | 4.5 µM |
| COc1ccc(C(=O)n2c(-c3cccc4ccccc34)nc3cc(Cl)ccc32)cc1 | 2.5 µM |
| O=C(c1ccc(F)c(F)c1)n1c(-c2cccc3ccccc23)nc2cc(Cl)ccc21 [Compound 530] | 5 µM |
| O=C(c1ccc(F)c(F)c1)n1c(-c2cccc3ccccc23)cc2cc(Cl)ccc21 | > 50 µM |
| O=C(c1c(F)cc(Br)cc1F)n1c(-c2cccc3ccccc23)nc2cc(Cl)ccc21 | 5.2 µM |
| O=C(c1ccc(F)cc1)n1c(-c2cccc3ccccc23)nc2ccc(Cl)cc21 | 5.3 µM |
| COc1ccc(C(=O)n2c(-c3cccc4ccccc34)nc3ccc(Cl)cc32)cc1 | 4.8 µM |

----------
Molecular target: CYP-2D6 (Homo sapiens (Human))
Sequence (P10635 whole entry): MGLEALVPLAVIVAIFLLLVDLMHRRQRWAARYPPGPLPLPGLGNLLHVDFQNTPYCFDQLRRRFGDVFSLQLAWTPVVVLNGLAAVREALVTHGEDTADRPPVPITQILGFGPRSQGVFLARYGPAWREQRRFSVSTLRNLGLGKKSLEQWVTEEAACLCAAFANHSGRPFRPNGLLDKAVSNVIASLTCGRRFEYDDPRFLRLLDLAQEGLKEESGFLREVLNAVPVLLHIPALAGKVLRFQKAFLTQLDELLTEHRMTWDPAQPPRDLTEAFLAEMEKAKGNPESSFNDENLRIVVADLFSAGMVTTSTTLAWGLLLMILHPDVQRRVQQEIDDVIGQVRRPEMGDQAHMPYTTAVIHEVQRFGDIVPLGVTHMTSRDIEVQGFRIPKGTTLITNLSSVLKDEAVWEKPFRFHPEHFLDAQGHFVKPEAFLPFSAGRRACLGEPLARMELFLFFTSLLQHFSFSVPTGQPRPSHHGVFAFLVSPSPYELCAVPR
Experiment: CYP panel profile: P450 inhibition, CYP-2D6
Format: in vitro ADME
Conditions: human liver microsomes
Protocol: 5. CYP Panel Profile: P450 Inhibition From 10 mM stock solutions of test compounds, a dilution plate was prepared diluting serially starting from 5 mM up to 2 μM in Acetonitrile/DMSO or Methanol/DMSO Human liver Microsomes were added at required concentration as per specific CYP isoform in a deep well assay plate (1A2, 2C9, 2D6, 2B6, 2C8, 2C19, and 3A4). […]
The compounds listed here are annotated with their IC50.

| Compound | IC50 |
| --- | --- |
| COC(=O)c1ccc2nc(-c3cccc4ccccc34)n(C(=O)c3ccc(F)c(F)c3)c2c1 | 19.3 µM |
| O=C(c1ccccc1)n1c(-c2cccc3ccccc23)nc2ccc(Cl)cc21 | 32.6 µM |
| O=C(C1CCCCC1)n1c(-c2cccc3ccccc23)nc2ccc(Cl)cc21 | 29 µM |
| O=C(c1ccccc1)n1c(-c2cccc3ccccc23)nc2cc(OC(F)(F)F)ccc21 | > 50 µM |
| O=C(C1CC1)n1c(-c2cccc3ccccc23)cc2cc(Cl)ccc21 | > 50 µM |
| COc1ccc(C(=O)n2c(-c3cccc4ccccc34)nc3ccc(Cl)cc32)cc1 | > 50 µM |
| Clc1ccc2[nH]c(-c3cccc4ccccc34)cc2c1 | 31.7 µM |
| Clc1ccc2c(c1)nc1n2Cc2cccc3cccc-1c23 | > 50 µM |
| O=S(=O)(c1ccc(C(F)(F)F)cc1)n1c(-c2cccc3ccccc23)nc2ccc(Cl)cc21 | > 50 µM |
| COC(=O)c1ccc2c(c1)nc(-c1cccc3ccccc13)n2C(=O)c1ccc(F)c(F)c1 | 2.9 µM |
| COc1ccc(C(=O)n2c(-c3cccc4ccccc34)nc3cc(Cl)ccc32)cc1 | > 50 µM |
| O=C(c1ccccc1)n1c(-c2cccc3ccccc23)nc2cc(Cl)c(Cl)cc21 | > 50 µM |
| O=C(c1ccc(F)cc1)n1c(-c2cccc3ccccc23)nc2ccc(Cl)cc21 | 26 µM |
| O=C(c1ccc(F)c(F)c1)n1c(-c2cccc3ccccc23)nc2cc(Cl)ccc21 [Compound 529] | > 50 µM |
| O=C(c1ccc(F)cc1)n1c(-c2cccc3ccccc23)nc2cc(Cl)ccc21 | > 50 µM |
| O=C(c1ccc(F)c(F)c1)n1c(-c2cccc3ccccc23)nc2cc(Cl)ccc21 [Compound 530] | > 50 µM |
| O=C(c1cccc2ccccc12)n1c(-c2cccc3ccccc23)nc2cc(Cl)ccc21 | > 50 µM |

----------
molecular target: aryl hydrocarbon receptor (AhR) (Mus musculus (Mouse)); assay: AhR ligand screening: AhRE-luciferase reporter in transfected Hepa1 cells; type: cell-based; settings: fold change of luciferase expression at 10 uM test compound relative to vehicle (0.1% DMSO)
Sequence (P30561 10-805): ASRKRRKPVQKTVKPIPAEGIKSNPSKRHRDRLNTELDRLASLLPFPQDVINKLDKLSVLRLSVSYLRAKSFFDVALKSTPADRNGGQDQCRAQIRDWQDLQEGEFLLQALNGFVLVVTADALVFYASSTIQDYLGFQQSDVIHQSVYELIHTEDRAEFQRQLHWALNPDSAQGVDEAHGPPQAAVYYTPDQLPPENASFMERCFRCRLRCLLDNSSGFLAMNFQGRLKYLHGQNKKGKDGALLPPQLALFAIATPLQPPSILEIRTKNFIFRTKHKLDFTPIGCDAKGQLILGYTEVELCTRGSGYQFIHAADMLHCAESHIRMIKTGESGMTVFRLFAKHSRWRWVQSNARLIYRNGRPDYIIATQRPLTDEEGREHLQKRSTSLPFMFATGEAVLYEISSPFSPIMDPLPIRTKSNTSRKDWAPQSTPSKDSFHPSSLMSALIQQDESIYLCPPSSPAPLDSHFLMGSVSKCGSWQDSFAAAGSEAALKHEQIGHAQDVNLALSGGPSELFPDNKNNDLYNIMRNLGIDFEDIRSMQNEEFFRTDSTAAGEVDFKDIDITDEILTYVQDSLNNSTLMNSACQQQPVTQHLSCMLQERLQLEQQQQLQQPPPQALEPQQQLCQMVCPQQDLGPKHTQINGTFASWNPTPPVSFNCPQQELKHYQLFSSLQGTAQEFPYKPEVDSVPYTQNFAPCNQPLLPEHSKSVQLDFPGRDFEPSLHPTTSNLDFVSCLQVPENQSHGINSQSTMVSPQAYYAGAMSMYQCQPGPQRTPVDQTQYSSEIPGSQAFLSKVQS
Sequence (P53762 whole entry partner): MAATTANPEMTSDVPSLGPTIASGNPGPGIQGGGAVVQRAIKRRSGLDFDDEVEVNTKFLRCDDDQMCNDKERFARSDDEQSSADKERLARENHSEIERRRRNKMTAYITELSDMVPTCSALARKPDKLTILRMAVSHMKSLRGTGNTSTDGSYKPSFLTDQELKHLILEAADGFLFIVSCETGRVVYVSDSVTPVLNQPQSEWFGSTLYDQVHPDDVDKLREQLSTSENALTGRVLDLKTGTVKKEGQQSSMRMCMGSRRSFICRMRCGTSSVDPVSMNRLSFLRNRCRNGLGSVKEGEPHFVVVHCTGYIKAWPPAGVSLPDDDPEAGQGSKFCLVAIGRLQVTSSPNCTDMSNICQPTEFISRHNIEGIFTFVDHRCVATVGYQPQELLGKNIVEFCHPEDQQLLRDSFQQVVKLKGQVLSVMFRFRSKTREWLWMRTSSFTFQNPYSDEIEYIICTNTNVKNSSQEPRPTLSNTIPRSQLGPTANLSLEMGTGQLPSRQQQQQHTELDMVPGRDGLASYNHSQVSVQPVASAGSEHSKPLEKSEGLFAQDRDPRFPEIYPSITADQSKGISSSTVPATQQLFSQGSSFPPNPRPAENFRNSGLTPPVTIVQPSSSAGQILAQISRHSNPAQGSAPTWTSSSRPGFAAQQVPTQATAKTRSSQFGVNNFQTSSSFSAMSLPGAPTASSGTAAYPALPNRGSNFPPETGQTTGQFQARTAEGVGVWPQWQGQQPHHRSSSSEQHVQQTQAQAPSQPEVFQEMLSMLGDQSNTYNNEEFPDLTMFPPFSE
Threshold rule: Fold @ 10 uM greater than or equal to 20 fold is Met; below that, Not met.

| Compound | Label |
| --- | --- |
| CN(C)c1ccc(C(=O)n2c(-c3cccc4ccccc34)nc3cc(Cl)ccc32)cc1 [Compound 685] | Met |
| COc1ccc(-c2nc3cc(Cl)ccc3n2C(=O)c2ccc(F)c(F)c2)c2ccccc12 [Compound 645] | Not met |
| Clc1ccc2c(c1)nc(-c1cccc3ccccc13)n2Cc1ccnc2ccccc12 [Compound 867] | Met |
| O=C(c1cccc2ccccc12)n1c(-c2ccccc2)nc2ccc(Cl)cc21 [Compound 491] | Met |
| O=c1c2cccc3cccc(c32)c2nc3ccc(Cl)cc3n12 [Compound 363] | Met |
| COC(=O)c1ccc2nc(-c3cccc4ccccc34)n(C(=O)c3ccc(OC(F)(F)F)cc3)c2c1 [Compound 1405] | Met |
| O=C(c1ccc(F)c(F)c1)n1c(-c2ccc(-c3ccccc3)cc2)nc2cc(Cl)ccc21 [Compound 643] | Not met |

----------
Below, each entry is listed alongside its reported Fold @ 10 uM.
target: aryl hydrocarbon receptor (AhR) (Mus musculus (Mouse)); test: AhR ligand screening: AhRE-luciferase reporter in transfected Hepa1 cells; assay type: cell-based; settings: fold change of luciferase expression at 10 uM test compound relative to vehicle (0.1% DMSO)

| Compound | Fold @ 10 uM / fold |
| --- | --- |
| N#Cc1ccc2c(c1)nc(-c1cccc3ccccc13)n2C(=O)c1ccccc1 | 2 |
| COc1ccc(C(=O)n2c(-c3cccc4ccccc34)nc3ccc(Cl)cc32)cc1 | 41 |
| O=C(c1ccc(F)c(F)c1)n1c(-c2cc3ccccc3o2)nc2ccc(Cl)cc21 | 73 |
| c1ccc2c(c1)Cn1c3ccccc3c3ccnc-2c31 | 28 |
| O=C(c1cccc2ccccc12)n1ccc2cc(Cl)ccc21 | 11 |
| O=C(c1ccc2c(c1)OCCO2)n1c(-c2cccc3ccccc23)nc2cc(Cl)ccc21 [Compound 850] | 33 |
| O=S(=O)(C1CC1)n1c(-c2cccc3ccccc23)nc2ccc(Cl)cc21 | 34 |
| COC(=O)c1ccc2nc(-c3cccc4ccccc34)n(S(=O)(=O)c3ccc(C#N)cc3)c2c1 | 18 |
| O=C(c1cccc2ccccc12)c1c[nH]c2cc(Cl)ccc12 | 7 |
| O=C(c1cccc2ccccc12)n1c(-c2ccccc2)nc2cc(Cl)ccc21 | 17 |
| O=C(c1ccc(F)c(F)c1)n1c(-c2ccnc3ccccc23)nc2cc(Cl)ccc21 | 23 |
| Clc1ccc2nc(-c3cccc4ccccc34)n(Cc3ccncc3)c2c1 | 42 |
| O=C(c1ccc(F)c(F)c1)n1c(-c2ccc(Cl)c3ccccc23)nc2ccc(Cl)cc21 | 74 |
| O=C(c1ccc(F)c(F)c1)n1c(-c2cccc3ccccc23)nc2ccc(OC(F)(F)F)cc21 | 22 |
| N#Cc1ccc(S(=O)(=O)n2c(-c3cccc4ccccc34)nc3cc(C(=O)N4CCCCC4)ccc32)cc1 | 6 |
| Fc1cccc(F)c1Cn1c(-c2cccc3ccccc23)nc2cc(Cl)ccc21 | 12 |
| O=C(c1ccc2nc(-c3cccc4ccccc34)n(S(=O)(=O)c3cccc(F)c3)c2c1)N1CCOCC1 | 1 |

----------
biological target: aryl hydrocarbon receptor (AhR) (Mus musculus (Mouse)); assay: AhR ligand screening: AhRE-luciferase reporter in transfected Hepa1 cells; format: cell-based; settings: luciferase expression at 100 nM test compound relative to 100 nM benchmark compound 11-cl-BBQ
Threshold rule: Fold relative to benchmark @ 100 nM greater than or equal to 0.07 fold is label 1; below that, label 0.

| Compound | Label |
| --- | --- |
| O=C(c1cccc2ccccc12)n1c(-c2ccccc2)nc2cc(Cl)ccc21 | label 0 |
| O=C(c1ccccc1)n1c(-c2ccc(F)cc2)nc2ccc(Cl)cc21 | label 0 |
| O=S(=O)(c1ccc2ccccc2c1)n1c(-c2cccc3ccccc23)nc2cc(Cl)ccc21 | label 1 |
| O=C(c1c[nH]c2ccc(Cl)cc12)C1CCCCC1 | label 0 |
| O=C(c1cccc2ccccc12)c1c[nH]c2cc(Cl)c(Cl)cc12 | label 0 |
| c1ccc2c(c1)Cn1c3ccccc3c3ccnc-2c31 | label 1 |
| O=C(c1ccc2c(c1)nc(-c1cccc3ccccc13)n2Cc1ccc(F)c(F)c1)N1CCOCC1 | label 0 |
| Cc1ccc(C(=O)c2c[nH]c3ccc(Cl)cc23)cc1 | label 0 |
| O=C(c1ccc(F)c(F)c1)n1c(-c2cccc3ccccc23)cc2cc(Cl)ccc21 | label 0 |
| Cc1ccc(S(=O)(=O)n2c(-c3cccc4ccccc34)nc3cc(F)ccc32)cc1 | label 1 |
| O=c1c2cccc3cccc(c32)c2nc3cc(Cl)ccc3n12 | label 1 |
| O=C(c1ccc(F)cc1F)n1c(-c2cccc3ccccc23)nc2cc(Cl)ccc21 [Compound 695] | label 1 |
| O=C(C1CC1)n1c(-c2cccc3ccccc23)cc2cc(Cl)ccc21 | label 0 |
| O=S(=O)(C1CC1)n1c(-c2cccc3ccccc23)nc2cc(Cl)ccc21 | label 0 |
